Overview of reported IC50 across a group of molecules:
Biological target: human IDO1 (Homo sapiens)
Sequence (P14902 whole entry): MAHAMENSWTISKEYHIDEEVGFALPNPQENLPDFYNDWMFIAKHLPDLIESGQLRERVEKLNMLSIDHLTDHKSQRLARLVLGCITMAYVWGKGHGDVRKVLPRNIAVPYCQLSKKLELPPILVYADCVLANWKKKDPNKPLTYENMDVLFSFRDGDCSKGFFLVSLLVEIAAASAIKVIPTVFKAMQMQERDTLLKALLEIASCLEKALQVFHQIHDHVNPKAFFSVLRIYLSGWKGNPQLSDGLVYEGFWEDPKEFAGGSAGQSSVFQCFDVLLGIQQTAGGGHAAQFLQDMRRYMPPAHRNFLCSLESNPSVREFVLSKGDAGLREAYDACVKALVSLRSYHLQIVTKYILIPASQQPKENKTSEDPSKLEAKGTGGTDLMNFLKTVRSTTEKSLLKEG
Experiment: IDO inhibition assay in human IDO1/HEK293 cells (IDO1 HEK Human)
Settings: HEK293 cells stably expressing human IDO1; 20 hours incubation; absorbance at 490 nm after Ehrlich reagent
Experimental: HEK293 cells were transfected with a pCDNA-based mammalian expression vector harboring human IDO1 cDNA (NM 002164.2) by electroporation. They were cultured in medium (DMEM with 10% FBS) containing 1 mg/ml G418 for two weeks. […] The compound treatments were stopped by adding trichloroacetic acid (Sigma-Aldrich) to a final concentration at 0.2%. […] The absorbance at 490 nm was measured on Envision plate reader. […]
# unit: µM | format: bare number

1) Cc1ccc(-c2noc(Nc3cc(-c4ccccc4-c4nnn[nH]4)cc4c3OCCCC4c3ccccc3)n2)cc1 (single isomer, unassigned) [26 (En. 2)]	0.424

Now look at this one.
Query: IC50 lookup needed for C=C(C)[C@H]1Oc2c(NC(=O)Nc3ccc(C)cc3)cc(-c3ccccc3-c3nnn[nH]3)cc2[C@@H]1c1ccccc1 (racemic) , thanks.
Response: 0.0091

---

Overview of reported IC50 across a group of molecules:
Biological target: UniProt:P14902
Test: IDO inhibition assay in human IDO1/HEK293 cells (IDO1 HEK Human)
Conditions: HEK293 cells stably expressing human IDO1; 20 hours incubation; absorbance at 490 nm after Ehrlich reagent
# unit: µM | format: bare number

Would you please look over these solved cases?
1. Cc1ccc(NC(=O)Nc2cc(-c3ccccc3C(=O)O)cc3c2OCCCC3c2ccccc2)cc1 (racemic) [Example 8-1]	0.0272
2. CC1CCOc2c(Nc3nc4ccccc4o3)cc(-c3ccccc3-c3nnn[nH]3)cc2C1c1ccccc1 (single isomer, unassigned)	0.0038
3. Fc1ccc2nc(Nc3cc(-c4ccccc4-c4nnn[nH]4)cc4c3OCCCC4c3ccccc3)sc2c1 (single isomer, unassigned) [57 (En. 1)]	0.849
4. c1ccc(C2CCCOc3c(Nc4nc5ccccc5o4)cc(-c4ccccc4-c4nnn[nH]4)cc32)cc1 (racemic) [Example 53]	0.0042

Query: IC50 lookup needed for O=C(Nc1cc(-c2ccccc2-c2nnn[nH]2)cc2c1OCCCC2c1ccccc1)NC1CC1 (single isomer, unassigned) [23 (En. 1)] , thanks.
Response: 3.5

Query: IC50 lookup needed for Cc1ccc(CC(=O)Nc2cc(-c3ccccc3-c3nnn[nH]3)cc3c2OCCC(C)C3c2ccccc2)cc1 (single isomer, unassigned) [Example 48] , thanks.
Response: 0.0125

---

Target: UniProt:P14902
Experiment: IDO inhibition assay in human IDO1/HEK293 cells (IDO1 HEK Human)
Settings: HEK293 cells stably expressing human IDO1; 20 hours incubation; absorbance at 490 nm after Ehrlich reagent
TEST_READOUT: IC50 (µM)
# unit: µM | format: bare number

1. COCC(CC(=O)O)c1cc(Nc2ccc(C#N)cc2)c2c(c1)C(C1CC1)CCCO2 (single isomer, unassigned) [131 (dia. 2)]	0.002

Query: IC50 lookup needed for Cc1ccc(CC(=O)Nc2cc(-c3ccccc3-c3nnn[nH]3)cc3c2OCCCC3c2ccccc2)cc1 (single isomer, unassigned) [Example 2-2] , thanks.
Response: 0.0318

---

Overview of reported pIC50 across a group of compounds:
Biological target: human IDO1 (Homo sapiens)
Assay: IDO inhibition assay in human IDO1/HEK293 cells (IDO1 HEK Human)
Settings: HEK293 cells stably expressing human IDO1; 20 hours incubation; absorbance at 490 nm after Ehrlich reagent
Please treat pIC50 as minus the base-10 logarithm of the molar concentration.

Would you please look over these solved cases?
1. Cc1ccc(-c2noc(Nc3cc(-c4ccccc4-c4nnn[nH]4)cc4c3OCCCC4c3ccccc3)n2)cc1 (single isomer, unassigned) [26 (En. 1)]	5.59
2. Cc1ccc(NC(=O)Nc2cc(-c3ccccc3-c3nnn[nH]3)cc3c2OCCCC3C2CC2)cc1 (racemic) [Example 36]	8.12

Query: pIC50 lookup needed for Cc1ccc(-c2nnn[nH]2)c(-c2cc(Nc3ccc(OC(F)F)cc3)c3c(c2)C(c2ccccc2)CCCO3)c1 (single isomer, unassigned) [Example 79] , thanks.
Response: 7.47
